Below, each of the molecules is paired with its reported MIC99 value.
- Test system: Plasmodium falciparum
- ASSAY_COMMENT: Antimalarial activity against ring stage chloroquine-resistant Plasmodium falciparum W2 preincubated for 48 hrs measured after 48 hrs in presence of 10% human serum by YOYO-1 dye-based FACS analysis
- Assay type: functional
Give the quantity in µM, number only.

Consider the following illustrative entries.
1) CC(=O)c1ccc(NC(=O)C(CC(C)C)N(C(=O)c2ccccc2)S(=O)(=O)c2ccc(C)cc2)cc1 (stereo not given) = 0.17
2) CC(=O)c1ccc(NC(=O)C(C(C)C)N(C(=O)c2ccccc2)S(=O)(=O)c2ccc([N+](=O)[O-])cc2)cc1 (stereo not given) = 1.57
3) CC(=O)c1ccc(NC(=O)C2CCCN2S(=O)(=O)c2ccccc2)cc1 (stereo not given) = 0.11
4) CC(=O)c1ccc(NC(=O)C(Cc2ccccc2)N(C(=O)c2ccccc2)S(=O)(=O)c2ccc(C)cc2)cc1 (stereo not given) = 0.78
5) C=C[C@H]1CN2CC[C@H]1C[C@H]2[C@H](O)c1ccnc2ccc(OC)cc12 [QUININE] = 0.83
6) CCC(C)C(C(=O)Nc1ccc(C(C)=O)cc1)N(C(=O)c1ccccc1)S(=O)(=O)c1ccc(C)cc1 (stereo not given) = 5.11
7) CC(=O)c1ccc(NC(=O)C(Cc2ccccc2)N(C(=O)c2ccccc2)S(=O)(=O)c2ccccc2)cc1 (stereo not given) = 0.9
8) CC(=O)c1ccc(NC(=O)C2CC(O)CN2S(=O)(=O)c2ccc([N+](=O)[O-])cc2)cc1 (stereo not given) = 0.32
9) CC(=O)c1ccc(NC(=O)CN(C(=O)c2ccccc2)S(=O)(=O)c2ccccc2)cc1 = 0.97
10) CCC(C)C(C(=O)Nc1ccc(C(C)=O)cc1)N(C(=O)c1ccccc1)S(=O)(=O)c1ccccc1 (stereo not given) = 1.25

What reported MIC99 corresponds to CC(=O)c1ccc(NC(=O)C(CC(C)C)N(C(=O)c2ccccc2)S(=O)(=O)c2ccc([N+](=O)[O-])cc2)cc1 (stereo not given) on Plasmodium falciparum? 0.06

What reported MIC99 corresponds to CC(=O)c1ccc(NC(=O)C2CCCN2S(=O)(=O)c2ccc(C)cc2)cc1 (stereo not given) on Plasmodium falciparum? 1.45

What reported MIC99 corresponds to CC(=O)c1ccc(NC(=O)C2CCCN2S(=O)(=O)c2ccc([N+](=O)[O-])cc2)cc1 (stereo not given) on Plasmodium falciparum? 6.74

What reported MIC99 corresponds to CC(=O)c1ccc(NC(=O)CN(C(=O)c2ccccc2)S(=O)(=O)c2ccc([N+](=O)[O-])cc2)cc1 on Plasmodium falciparum? 0.18

What reported MIC99 corresponds to CC(=O)c1ccc(NC(=O)C2CC(O)CN2S(=O)(=O)c2ccccc2)cc1 (stereo not given) on Plasmodium falciparum? 0.16

====

- ASSAY_COMMENT: Antioxidant activity assessed as inhibition of DPPH radical generation at 3 mg/ml after 20 mins under dark condition by UV-Visible spectrophotometric analysis relative to control
- Type: functional
Below, each of the compounds is paired with its reported inhibition value.
Give the quantity in %, number only.

Consider the following illustrative entries.
1. CCC(C)C(C(=O)Nc1ccc(C(C)=O)cc1)N(C(=O)c1ccccc1)S(=O)(=O)c1ccccc1 (configuration not stated) = 14.2
2. CC(=O)c1ccc(NC(=O)CN(C(=O)c2ccccc2)S(=O)(=O)c2ccc(C)cc2)cc1 = 18.2

GET /values?readout=inhibition&item= CC(=O)c1ccc(NC(=O)C(Cc2c[nH]c3ccccc23)N(C(=O)c2ccccc2)S(=O)(=O)c2ccc([N+](=O)[O-])cc2)cc1 (configuration not stated) 23.5

GET /values?readout=inhibition&item= CCC(C)C(C(=O)Nc1ccc(C(C)=O)cc1)N(C(=O)c1ccccc1)S(=O)(=O)c1ccc([N+](=O)[O-])cc1 (configuration not stated) 42.1

GET /values?readout=inhibition&item= CC(=O)c1ccc(NC(=O)C2CC(O)CN2S(=O)(=O)c2ccccc2)cc1 (configuration not stated) 49.8

GET /values?readout=inhibition&item= CC(=O)c1ccc(NC(=O)C(C(C)C)N(C(=O)c2ccccc2)S(=O)(=O)c2ccccc2)cc1 (configuration not stated) 47.5

====

- ASSAY_COMMENT: Antioxidant activity assessed as DPPH radical scavenging activity after 20 mins under dark condition by UV-Visible spectrophotometric analysis
- Assay type: functional
QUANTITY_KIND: log10(IC50) (log10 of the value in mM)
In plain terms, each number is the log10 of measured IC50 in mM.

Consider the following illustrative entries.
1) CC(=O)c1ccc(NC(=O)C(Cc2ccccc2)N(C(=O)c2ccccc2)S(=O)(=O)c2ccc([N+](=O)[O-])cc2)cc1 (stereo not drawn) = 1.59
2) CC(=O)c1ccc(NC(=O)CN(C(=O)c2ccccc2)S(=O)(=O)c2ccc([N+](=O)[O-])cc2)cc1 = 1.76
3) CC(=O)c1ccc(NC(=O)C2CC(O)CN2S(=O)(=O)c2ccccc2)cc1 (stereo not drawn) = 0.58
4) CC(=O)c1ccc(NC(=O)C(Cc2c[nH]c3ccccc23)N(C(=O)c2ccccc2)S(=O)(=O)c2ccc([N+](=O)[O-])cc2)cc1 (stereo not drawn) = -0.14
5) CC(=O)c1ccc(NC(=O)CN(C(=O)c2ccccc2)S(=O)(=O)c2ccccc2)cc1 = 1.51
6) CCC(C)C(C(=O)Nc1ccc(C(C)=O)cc1)N(C(=O)c1ccccc1)S(=O)(=O)c1ccccc1 (stereo not drawn) = 0.93
7) CC(=O)c1ccc(NC(=O)C(Cc2ccccc2)N(C(=O)c2ccccc2)S(=O)(=O)c2ccccc2)cc1 (stereo not drawn) = 1.04

GET /values?readout=log10(IC50)&item= CC(=O)c1ccc(NC(=O)C(C(C)C)N(C(=O)c2ccccc2)S(=O)(=O)c2ccccc2)cc1 (stereo not drawn) 1.11

====

- ASSAY_COMMENT: Antioxidant activity assessed as DPPH radical scavenging activity after 20 mins under dark condition by UV-Visible spectrophotometric analysis
- Assay type: functional
We label by threshold. Values of IC50 strictly beneath 8 mM are label 1. Values of 8 mM and up are label 0.

1. CC(=O)c1ccc(NC(=O)C2CCCN2S(=O)(=O)c2ccccc2)cc1 (configuration not stated) = label 0
2. CC(=O)c1ccc(NC(=O)C2CCCN2S(=O)(=O)c2ccc(C)cc2)cc1 (configuration not stated) = label 0
3. CC(=O)c1ccc(NC(=O)C(CC(C)C)N(C(=O)c2ccccc2)S(=O)(=O)c2ccc([N+](=O)[O-])cc2)cc1 (configuration not stated) = label 0
4. CC(=O)c1ccc(NC(=O)C(Cc2c[nH]c3ccccc23)N(C(=O)c2ccccc2)S(=O)(=O)c2ccccc2)cc1 (configuration not stated) = label 0
5. CC(=O)c1ccc(NC(=O)C(CC(C)C)N(C(=O)c2ccccc2)S(=O)(=O)c2ccc(C)cc2)cc1 (configuration not stated) = label 0

Please let me know if CC(=O)c1ccc(NC(=O)C(CC(C)C)N(C(=O)c2ccccc2)S(=O)(=O)c2ccccc2)cc1 (configuration not stated) shows IC50 below 8 mM. label 1

Please let me know if CC(=O)c1ccc(NC(=O)C2CC(O)CN2S(=O)(=O)c2ccc([N+](=O)[O-])cc2)cc1 (configuration not stated) shows IC50 below 8 mM. label 1

Please let me know if CC(=O)c1ccc(NC(=O)C(C(C)C)N(C(=O)c2ccccc2)S(=O)(=O)c2ccc([N+](=O)[O-])cc2)cc1 (configuration not stated) shows IC50 below 8 mM. label 1

Please let me know if CC(=O)c1ccc(NC(=O)C(Cc2ccccc2)N(C(=O)c2ccccc2)S(=O)(=O)c2ccc(C)cc2)cc1 (configuration not stated) shows IC50 below 8 mM. label 1

Please let me know if CC(=O)c1ccc(NC(=O)C(Cc2c[nH]c3ccccc23)N(C(=O)c2ccccc2)S(=O)(=O)c2ccc(C)cc2)cc1 (configuration not stated) shows IC50 below 8 mM. label 1

Please let me know if CC(=O)c1ccc(NC(=O)CN(C(=O)c2ccccc2)S(=O)(=O)c2ccc(C)cc2)cc1 shows IC50 below 8 mM. label 0

Please let me know if CCC(C)C(C(=O)Nc1ccc(C(C)=O)cc1)N(C(=O)c1ccccc1)S(=O)(=O)c1ccc(C)cc1 (configuration not stated) shows IC50 below 8 mM. label 0

Please let me know if CC(=O)c1ccc(NC(=O)C2CCCN2S(=O)(=O)c2ccc([N+](=O)[O-])cc2)cc1 (configuration not stated) shows IC50 below 8 mM. label 0

Please let me know if CCC(C)C(C(=O)Nc1ccc(C(C)=O)cc1)N(C(=O)c1ccccc1)S(=O)(=O)c1ccc([N+](=O)[O-])cc1 (configuration not stated) shows IC50 below 8 mM. label 0

Please let me know if CC(=O)c1ccc(NC(=O)C2CC(O)CN2S(=O)(=O)c2ccc(C)cc2)cc1 (configuration not stated) shows IC50 below 8 mM. label 0

Please let me know if O=C1O[C@H]([C@@H](O)CO)C(O)=C1O [ASCORBIC ACID] shows IC50 below 8 mM. label 1

Please let me know if CC(=O)c1ccc(NC(=O)C(C(C)C)N(C(=O)c2ccccc2)S(=O)(=O)c2ccc(C)cc2)cc1 (configuration not stated) shows IC50 below 8 mM. label 0

Taken from ChEMBL document CHEMBL4033670.
